The origin of these recorded values is patent US20200199213A1.

I'd be grateful if you could share measured OD at 560 nm for these entries.
# targetUnderTest: T1, human ANGPTL3/8 complex (human, UniProt Q9Y5C1 17-460; Q6UXH0 22-198, limits assumed)
# T1 construct: also called hANGPTL3/8 complex; ANGTPL3/8 complex
# T1 sequence 1: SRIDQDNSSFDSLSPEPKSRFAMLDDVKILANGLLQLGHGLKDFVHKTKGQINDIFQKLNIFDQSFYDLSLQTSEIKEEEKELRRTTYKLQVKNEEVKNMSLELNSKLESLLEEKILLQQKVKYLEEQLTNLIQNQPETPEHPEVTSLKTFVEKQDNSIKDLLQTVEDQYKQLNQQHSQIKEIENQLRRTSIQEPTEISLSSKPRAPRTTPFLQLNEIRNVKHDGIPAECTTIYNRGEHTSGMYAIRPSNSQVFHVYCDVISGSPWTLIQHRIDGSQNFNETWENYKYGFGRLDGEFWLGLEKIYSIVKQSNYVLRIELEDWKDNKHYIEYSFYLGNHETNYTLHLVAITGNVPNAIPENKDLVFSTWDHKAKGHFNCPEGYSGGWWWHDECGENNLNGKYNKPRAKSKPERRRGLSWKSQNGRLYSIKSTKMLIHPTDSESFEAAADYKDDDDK
# T1 sequence 2: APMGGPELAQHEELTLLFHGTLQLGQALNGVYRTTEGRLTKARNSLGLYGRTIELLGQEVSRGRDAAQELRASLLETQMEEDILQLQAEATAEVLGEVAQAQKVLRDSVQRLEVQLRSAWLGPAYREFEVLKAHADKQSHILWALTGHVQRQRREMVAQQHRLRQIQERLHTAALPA
# testMethodNotes: ELISA; Ab captured by anti-human Fc; biotinylated antigen at 11.1 nM
Kindly provide the numeric value in OD 560 nm only, without the unit symbol.

q: Supply measured OD at 560 nm of Ab with LC variant having a D31S mutation (SEQ ID NO:21) and a HC of SEQ ID NO:6 (antibody, human IgG4 S228P, kappa, F234A L235A, V domains shown, also called D31S Variant Ab; D31S Ab) VH: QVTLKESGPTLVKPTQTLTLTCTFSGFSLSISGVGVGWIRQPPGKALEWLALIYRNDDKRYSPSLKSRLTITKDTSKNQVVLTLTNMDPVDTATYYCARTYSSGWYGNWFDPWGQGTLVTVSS VL: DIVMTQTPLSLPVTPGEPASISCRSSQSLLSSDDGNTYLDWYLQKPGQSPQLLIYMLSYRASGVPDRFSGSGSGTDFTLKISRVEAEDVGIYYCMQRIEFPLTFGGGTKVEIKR in your reply.
a: 1.74

q: Write down OD at 560 nm measured for item Ab with LC variant having a E99Q mutation (SEQ ID NO:25) and a HC of SEQ ID NO:6 (antibody, human IgG4 S228P, kappa, F234A L235A, V domains shown, also called E99Q Variant Ab; E99Q Ab) VH: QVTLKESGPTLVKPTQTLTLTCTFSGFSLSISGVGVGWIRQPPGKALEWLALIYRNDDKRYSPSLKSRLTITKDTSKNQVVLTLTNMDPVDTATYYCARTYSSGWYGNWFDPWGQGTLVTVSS VL: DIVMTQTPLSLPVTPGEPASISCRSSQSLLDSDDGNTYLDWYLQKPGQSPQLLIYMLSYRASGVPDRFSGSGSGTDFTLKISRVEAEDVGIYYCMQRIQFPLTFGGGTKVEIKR
a: 1.74

q: Return value of OD at 560 nm for input Ab with LC variant having a D33A mutation (SEQ ID NO:22) and a HC of SEQ ID NO:6 (antibody, human IgG4 S228P, kappa, F234A L235A, V domains shown, also called D33A Variant Ab; D33A Ab) VH: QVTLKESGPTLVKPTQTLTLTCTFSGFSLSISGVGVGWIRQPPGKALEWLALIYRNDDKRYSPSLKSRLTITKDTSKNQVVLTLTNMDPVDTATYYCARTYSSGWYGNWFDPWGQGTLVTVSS VL: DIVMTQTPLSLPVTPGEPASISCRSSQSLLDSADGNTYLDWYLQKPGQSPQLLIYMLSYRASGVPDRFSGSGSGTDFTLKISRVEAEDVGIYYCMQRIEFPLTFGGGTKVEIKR , no commentary.
a: 1.64

q: Name the recorded OD at 560 nm of the binder listed here: anti-ANGPTL3/8 complex Ab having a LC of SEQ ID NO:5 and a HC of SEQ ID NO:6 (antibody, human IgG4 S228P, kappa, F234A L235A, V domains shown, In the ELISA assays tested as IgG from CHO supernatants; also called the Ab) VH: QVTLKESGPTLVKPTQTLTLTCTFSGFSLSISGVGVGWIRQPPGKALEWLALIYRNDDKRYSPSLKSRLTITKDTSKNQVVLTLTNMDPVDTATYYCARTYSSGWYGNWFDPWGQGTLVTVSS VL: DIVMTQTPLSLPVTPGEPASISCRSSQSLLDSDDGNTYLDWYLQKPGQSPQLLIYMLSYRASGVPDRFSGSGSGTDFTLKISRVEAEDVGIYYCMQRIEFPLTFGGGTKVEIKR
a: 1.71
